Assayed Target: PAR2 (HT-29 cells) (Homo sapiens, UniProt P55085)
Construct: host or cells: HT-29
Sequence (P55085 26-397): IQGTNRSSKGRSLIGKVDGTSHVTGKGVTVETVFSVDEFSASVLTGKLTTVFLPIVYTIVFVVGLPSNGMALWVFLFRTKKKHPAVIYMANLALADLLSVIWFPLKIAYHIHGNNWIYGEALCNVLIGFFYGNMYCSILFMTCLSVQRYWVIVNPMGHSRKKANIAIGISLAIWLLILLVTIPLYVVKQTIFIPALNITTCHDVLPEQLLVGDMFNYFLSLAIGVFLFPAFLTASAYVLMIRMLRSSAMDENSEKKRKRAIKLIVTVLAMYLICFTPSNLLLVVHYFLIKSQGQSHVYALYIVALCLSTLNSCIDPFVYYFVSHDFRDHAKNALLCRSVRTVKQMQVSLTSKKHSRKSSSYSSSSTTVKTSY
Method Notes: Ca FLIPR TETRA assay, ANTAGONIST mode, activator 3.1 U/mL trypsin
Type: cell-based
Particulars: HT-29 cells; activator 3.1 U/mL trypsin; Method A: maximal concentration of antagonist 0.1, 1 or 2 μM

| Structure String | Unit Symbol | IC50 |
| --- | --- | --- |
| Cc1cnc(N2CCN(C(=O)c3cc4nc(-c5ccc(Cl)c(F)c5)cc(C(C)(C)C)c4o3)C(C)(C)C2)nc1C(=O)O | nM | 0.4 |
| CC(C)(C)c1cc(C2CC3(CCC3)C2)nc2cc(C(=O)N3CCN(C(=O)[C@H]4COCCN4)CC3(C)C)oc12 | nM | 130 |
| Cc1nccnc1N1CCN(C(=O)c2cc3nc(-c4ccc(Cl)c(F)c4)cc(C(C)(C)C)c3o2)C(C)(C)C1=O | nM | 43 |
| CC(C)(C)c1cc(-c2ccc(Cl)cc2)nc2cc(C(=O)N3CCN(c4ccnc(C(=O)O)n4)CC3(C)C)oc12 | nM | 19 |
| CC(C)(C)c1cc(-c2ccc(Cl)c(F)c2)nc2cc(C(=O)N3CCN(c4nccnc4C(=O)O)CC3(C)C)oc12 | nM | 6.2 |
| CC(C)(C)c1cc(-c2ccc(Cl)cc2)nc2cc(C(=O)N3CCN(c4cccc(C(=O)O)n4)C(=O)C3(C)C)oc12 | nM | 14 |
| CC(C)(C)c1cc(-c2ccc(Cl)cc2)nc2cc(C(=O)N3CCN(C(=O)CC4(C(=O)O)CCC4)CC3(C)C)oc12 | nM | 0.9 |

###

Assayed Target: PAR2 (HT-29 cells) (Homo sapiens, UniProt P55085)
Construct: host or cells: HT-29
Method Notes: Ca FLIPR TETRA assay, ANTAGONIST mode, activator 3.1 U/mL trypsin
Format: cell-based
Particulars: HT-29 cells, activator 3.1 U/mL trypsin; maximal antagonist concentration per Method (A: 0.1, 1 or 2 μM; B: 50 μM)
Parameter class (string): assigned from measured IC50. Ranges: low = under 6 nM, mid = from 6 nM up to 50 nM, high = 50 nM and over

| Molecule | Class Assignment |
| --- | --- |
| CC[C@@H](C)c1cc(-c2ccc(F)cc2)nc2cc(C(=O)N3CCNC(=O)C3(C)C)oc12 | low |
| CC1(c2cc(-c3ccc(F)cc3)nc3cc(C(=O)N4CCN(C(=O)C5CCOCC5)CC4(C)C)oc23)CC1 | mid |
| CC(C)c1cc(-c2ccc(F)cc2)nc2cc(C(=O)N3CCN(C(=O)C4(O)CCC4)[C@@H](C)C3)oc12 | high |
| CC(C)(C)c1cc(-c2ccc(F)cc2)nc2cc(C(=O)N3CCN(C(=O)c4nnc[nH]4)CC3(C)C)oc12 | low |
| CN1CCN(C(=O)c2cc3nc(-c4cccc(Cl)c4)cc(C(C)(C)C)c3o2)C(C)(C)C1=O | mid |
| CC(C)c1cc(-c2ccc(F)cc2)nc2cc(C(=O)N3CCN(C(=O)C4CCCCO4)[C@@H](C)C3)oc12 (stereo partly drawn) | high |
| C[C@H]1CN(C(=O)c2cc3nc(-c4ccc(F)cc4)nc(C4(C)CC4)c3o2)CCN1C(=O)[C@H](O)CC(C)(C)C | high |
| CC(C)C[C@@H](O)C(=O)N1CCN(C(=O)c2cc3nc(-c4ccc(F)cc4)cc(C4(C)CC4)c3o2)C(C)(C)C1 | low |
| CC(C)(C)c1cc(-c2ccc(F)cc2)nc2cc(C(=O)N3CCN(S(=O)(=O)c4c[nH]cn4)CC3(C)C)oc12 | mid |
| CC(C)c1cc(-c2ccc(F)cc2)nc2sc(C(=O)N3CCN(C(=O)[C@H](O)CC(C)(C)C)CC3(C)C)nc12 | mid |
| CC1(c2cc(-c3ccc(F)cc3)nc3cc(C(=O)N4CCN(C(=O)C5(C#N)CC5)CC4(C)C)oc23)CC1 | low |
| CC1(C)C(=O)NCCN1C(=O)c1cc2nc(-c3ccc(F)cc3)cc(C3CCC(F)(F)CC3)c2o1 | mid |
| CC(C)(C)c1cc(-c2ccc(Cl)cc2)nc2cc(C(=O)N3CCN(c4ccc(C(=O)O)nc4)CC3(C)C)oc12 | mid |
| CC(C)(C)c1cc(-c2ccc(C(F)(F)F)cc2)nc2cc(C(=O)N3CCN(C(=O)[C@H]4C[C@@](C)(O)C4)CC3(C)C)oc12 | low |
| CC(C)c1cc(-c2ccc(F)cc2)nc2cc(C(=O)N3CCN(S(=O)(=O)c4ccn(C)n4)CC3(C)C)oc12 | mid |
| C[C@H]1CN(C(=O)c2cc3nc(-c4ccc(F)cc4)cc(C4(C)CC4)c3o2)CCN1C(=O)C1(O)CC1 | high |
| CC(Oc1ccccc1)C(=O)N1CCN(C(=O)c2cc3nc(-c4ccc(F)cc4)cc(C(C)C)c3o2)C[C@@H]1C (stereo partly drawn) | high |
| CC(C)(C)c1cc(-c2ccc(Cl)c(F)c2)nc2cc(C(=O)N3CCN(c4ccc(C(=O)O)cn4)CC3(C)C)oc12 | low |
| C[C@H]1CN(C(=O)c2cc3nc(-c4ccc(F)cc4)cc(C4(C)CC4)c3o2)CCN1C(=O)C(O)c1ccc(F)cc1 (stereo partly drawn) | low |
| CC(C)(C)c1cc(-c2ccc(Cl)c(F)c2)nc2cc(C(=O)N3CCN(c4cc(C(=O)O)ccn4)CC3(C)C)oc12 | low |
| CC(C)(C)c1cc(-c2ccc(Cl)c(F)c2)nc2cc(C(=O)N3CCN(c4cc(C(=O)O)n[nH]4)C(=O)C3(C)C)oc12 | high |
| CC(C)(C)c1cc(-c2ccc(F)cc2)nc2cc(C(=O)N3CCN(C(=O)c4ncccn4)CC3(C)C)oc12 | mid |
| CC(C)c1cc(-c2ccc(F)cc2)nc2cc(C(=O)N3CCN(C(=O)C4(O)CCOCC4)CC3(C)C)oc12 | high |
| CC(C)(C)c1cc(-c2ccc(F)cc2)nc2cc(C(=O)N3CCN(CC(=O)O)C(=O)C3(C)C)oc12 | high |
| CC(C)c1cc(-c2ccc(F)cc2)nc2cc(C(=O)N3CCN(C(=O)C4CCCO4)CC3(C)C)oc12 (stereo not drawn) | mid |
| CC(C)(C(=O)O)C(=O)N1CCN(C(=O)c2cc3nc(-c4ccc(F)cc4)cc(C(C)(C)C)c3o2)C(C)(C)C1 | high |
| CC(C)(C)c1cc(-c2ccc(Cl)c(F)c2)nc2cc(C(=O)N3CCN(c4ccnc(C(=O)O)c4)CC3(C)C)oc12 | mid |

###

Assayed Target: PAR2 (HT-29 cells) (Homo sapiens)
Construct: host or cells: HT-29
Method Notes: Ca FLIPR TETRA assay, ANTAGONIST mode, activator 8 μM SLIGKV
Format: cell-based
Particulars: HT-29 cells, activator 8 μM SLIGKV; maximal antagonist concentration per Method (A: 0.1, 1 or 2 μM; B: 50 μM)
pIC50: −log10 of the molar value.

| Compound | pIC50 |
| --- | --- |
| COCCN1CCN(C(=O)c2cc3nc(-c4ccc(F)cc4)cc(C(C)(C)C)c3o2)C(C)(C)C1=O [Example I-210] | 8.70 |
| CC(C)c1cc(-c2ccc(F)cc2)nc2cc(C(=O)N3CCN(C(=O)c4ccnn4C)CC3(C)C)oc12 [Example I-139] | 7.62 |
| CC(C)(C)c1cc(-c2cccc(Cl)c2)nc2cc(C(=O)N3CCNC(=O)C3(C)C)oc12 [Example I-244] | 7.72 |
| CC(C)(CC(=O)N1CCN(C(=O)c2cc3nc(-c4ccc(F)cc4)cc(C(C)(C)C)c3o2)C(C)(C)C1)C(=O)O [Example I-196] | 9.15 |
| CC[C@H](C)c1cc(-c2ccc(F)cc2)nc2cc(C(=O)N3CCNC(=O)C3(C)C)oc12 [Example I-246] | 7.96 |
| CC(C)c1cc(-c2ccc(F)cc2)nc2cc(C(=O)N3CCN(C(=O)c4ccno4)CC3(C)C)oc12 [Example I-13] | 8.52 |
| CC(C)(C)c1cc(-c2ccc(F)cc2)nc2cc(C(=O)N3CCN(C(=O)c4ccc(C(=O)O)cc4)CC3(C)C)oc12 [Example I-192] | 7.85 |
| CC(C)(C)c1cc(-c2ccc(Cl)cc2)nc2cc(C(=O)N3CCN(c4ccncc4)CC3(C)C)oc12 [Example I-262] | 6.11 |
| Cc1nnc(C(=O)N2CCN(C(=O)c3cc4nc(-c5ccc(F)cc5)cc(C(C)(C)C)c4o3)C(C)(C)C2)o1 [Example I-183] | 8.59 |
| CC1(c2cc(-c3ccc(F)cc3)nc3cc(C(=O)N4CCN(C(=O)C5(O)CCC5)CC4(C)C)oc23)CC1 [Example I-56] | 7.80 |
| Cc1ccc(-c2cc(C(C)(C)C)c3oc(C(=O)N4CCN(C(=O)[C@H]5C[C@@](C)(O)C5)CC4(C)C)cc3n2)cc1 [Example I-164] | 8.54 |
| CC(C)c1cc(-c2ccc(F)cc2)nc2cc(C(=O)N3CCN(C(=O)CC#N)CC3(C)C)oc12 [Example I-9] | 7.05 |
| CC(C)(C)c1cc(-c2ccc(Cl)c(F)c2)nc2cc(C(=O)N3CCNC(=O)C3(C)C)oc12 [Example I-176] | 8.32 |
| CC(C)(C)c1cc(-c2ccc(Cl)c(F)c2)nc2cc(C(=O)N3CCN(c4cccc(C(=O)O[C@@H]5OC(C(=O)O)[C@@H](O)C(O)[C@@H]5O)n4)CC3(C)C)oc12 (some centres unmarked) [Example I-253] | 8.46 |
